Measured MIC Range values are reported for all entries that follow.
- System: Moraxella catarrhalis
- METHOD NOTES: MIC by agar dilution (NCCLS), 411 isolates Buenos Aires 1998-99
- Format: cell-based
- CONDITION LABEL: Moraxella catarrhalis (n = 59)
READOUT: MIC Range

| COMPOUND | EXPERIMENTAL SYSTEM | OBSERVED |
| --- | --- | --- |
| CC1COc2c(N3CCN(C)CC3)c(F)cc3c(=O)c(C(=O)O)cn1c23 (stereo not shown) [Ofloxacin, ofloxacin] | Moraxella catarrhalis | 60 to 125 ng/mL |
| N[C@@H]1[C@H]2CN(c3nc4c(cc3F)c(=O)c(C(=O)O)cn4-c3ccc(F)cc3F)C[C@@H]12 [Trovafloxacin, trovafloxacin] | Moraxella catarrhalis | ≤4 to 30 ng/mL |
| CO/N=C1\CN(c2nc3c(cc2F)c(=O)c(C(=O)O)cn3C2CC2)CC1CN (racemic) [Gemifloxacin] | Moraxella catarrhalis | ≤4 to 16 ng/mL |
| C[C@H]1COc2c(N3CCN(C)CC3)c(F)cc3c(=O)c(C(=O)O)cn1c23 [Levofloxacin, levofloxacin] | Moraxella catarrhalis | ≤4 to 30 ng/mL |
